- assayTarget: Replicative DNA helicase DnaB (Mycobacterium tuberculosis, UniProt P9WMR3)
- Sequence (P9WMR3 whole entry): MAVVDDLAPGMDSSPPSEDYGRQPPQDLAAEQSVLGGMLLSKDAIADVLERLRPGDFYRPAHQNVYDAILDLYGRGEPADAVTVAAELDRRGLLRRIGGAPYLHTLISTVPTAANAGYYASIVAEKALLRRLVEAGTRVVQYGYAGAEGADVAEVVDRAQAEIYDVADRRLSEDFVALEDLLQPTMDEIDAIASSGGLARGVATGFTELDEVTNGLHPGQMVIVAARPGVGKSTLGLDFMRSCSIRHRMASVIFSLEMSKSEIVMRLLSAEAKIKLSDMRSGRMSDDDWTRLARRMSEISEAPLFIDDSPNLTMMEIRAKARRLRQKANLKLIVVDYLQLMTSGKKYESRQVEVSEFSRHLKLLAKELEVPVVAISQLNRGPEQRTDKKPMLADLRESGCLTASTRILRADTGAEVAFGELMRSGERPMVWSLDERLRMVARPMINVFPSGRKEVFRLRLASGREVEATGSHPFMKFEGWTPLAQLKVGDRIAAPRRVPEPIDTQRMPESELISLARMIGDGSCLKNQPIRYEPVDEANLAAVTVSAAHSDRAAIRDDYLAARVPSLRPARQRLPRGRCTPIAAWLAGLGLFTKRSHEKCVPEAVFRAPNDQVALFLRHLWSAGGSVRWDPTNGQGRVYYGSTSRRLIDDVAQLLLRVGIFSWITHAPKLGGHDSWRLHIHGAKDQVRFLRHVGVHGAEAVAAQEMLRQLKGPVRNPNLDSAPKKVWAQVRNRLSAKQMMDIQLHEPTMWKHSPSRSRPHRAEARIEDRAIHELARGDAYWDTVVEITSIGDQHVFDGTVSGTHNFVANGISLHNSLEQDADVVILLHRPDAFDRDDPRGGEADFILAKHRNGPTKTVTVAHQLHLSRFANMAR
- testMethodNotes: DnaB intein splicing inhibitors, dose response, biochemical, cell-free fluorescence (AID 449749)
- Type: functional
Calls of active or inactive are those of the source.
Hi there, use one of these labels in your reply, thanks! 1 (yes) for active, 0 (no) for inactive

compound	assayTarget	group
Cc1ccc(C2=NN(C(=O)CCl)C(c3ccco3)C2)o1 (stereo not given)	Replicative DNA helicase DnaB (Mycobacterium tuberculosis, UniProt P9WMR3)	1 (yes)
Cc1ccc(-c2[nH]nc3c2C(c2cccnc2)C(C#N)=C(N)O3)cc1 (stereo not given)	Replicative DNA helicase DnaB (Mycobacterium tuberculosis, UniProt P9WMR3)	1 (yes)
COc1ccc(OC)c(C2C(C#N)=C(N)Oc3c2c(C)nn3-c2ccc(C)cc2)c1 (stereo not given)	Replicative DNA helicase DnaB (Mycobacterium tuberculosis, UniProt P9WMR3)	0 (no)
COc1ccccc1C1C(C#N)=C(N)Oc2c1c(-c1ccccc1)nn2-c1ccccc1 (stereo not given)	Replicative DNA helicase DnaB (Mycobacterium tuberculosis, UniProt P9WMR3)	1 (yes)
O=C1NCCCC2c3c(cc(Br)c(O)c3Br)OC12N1CCCCC1 (stereo not given)	Replicative DNA helicase DnaB (Mycobacterium tuberculosis, UniProt P9WMR3)	1 (yes)

For this compound, state the assay outcome: Cc1ccc(S(=O)(=O)N[C@@H](Cc2ccccc2)C(=O)CCl)cc1
1 (yes)

// param item: O=C1c2ccccc2C(=O)c2cc(S(=O)(=O)Nc3ccccc3)ccc21 ; yields the recorded call
1 (yes)

Fill in: this test's call for Cc1nc2ccccc2nc1N/N=C/c1ccc(O)cc1O is ___
0 (no)

Which result was noted for this compound in the test: COC(=O)Cc1c(C)[nH]n(-c2cc(Cl)cc(Cl)c2)c1=O
1 (yes)

# outcome recorded in this test, key = CCOC(=O)c1c(NC(=S)N2CCCCC2)sc2c1CCN(C(=O)OCC)C2
1 (yes)

Hi team, can someone confirm the assay call for Fc1ccc(Nc2nc(Oc3ccccc3F)nc(N3CCCC3)n2)cc1 ?
1 (yes)

Which outcome was assigned to CCc1ccc(N2C(=O)C(Cl)=C(N3CCOCC3)C2=O)cc1 in this test?
1 (yes)

Tell me the recorded outcome of this test for O=C(Oc1cccc(-n2cnnn2)c1)c1ccco1 .
1 (yes)

Dear colleague, could you share the recorded outcome for Cc1ccc(/C=C2\SC(N3CCN(C(c4ccccc4)c4ccccc4)CC3)=NC2=O)o1 when you have a moment?
0 (no)

// return assay outcome for COc1ccccc1CN1CCSCC1
1 (yes)

---

- assayTarget: Endoribonuclease toxin MazF (Escherichia coli K-12, UniProt P0AE70)
- Sequence (P0AE70 whole entry): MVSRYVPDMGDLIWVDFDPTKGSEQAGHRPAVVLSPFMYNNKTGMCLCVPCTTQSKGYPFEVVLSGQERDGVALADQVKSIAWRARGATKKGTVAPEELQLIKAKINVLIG
- testMethodNotes: activation of MazEF endoribonuclease cleavage – biochemical, fluorescence, single-stranded RNA substrate, uHTS hits, dose response (AID 588481)
- Type: functional
The source made the active and inactive calls.
Returns: one label drawn from t (active), f (inactive)

// known answers, use as guide
compound	group
Oc1[nH]c2ccccc2c1N=Nc1ccccc1F	f
Cc1ccc2nc(N3C(=O)C(O)=C(C(=O)c4ccco4)C3c3cccs3)sc2c1 (stereo not given)	f
CCN(CC)c1ccc2cc(C(=O)Nc3ccccn3)c(=O)oc2c1	f
CC1(C)OC(c2ccccc2)=C/C(=C/C=C2C(=O)NC(=S)NC2=O)O1	t

Here is the next item to consider.
Could you please tell me the result logged for COC(=O)c1sc2nc(SCc3cccc(F)c3)n(N)c(=O)c2c1C in this assay?
f

---

- assayTarget: Paired box protein Pax-8 (Homo sapiens)
- Sequence (Q06710 whole entry): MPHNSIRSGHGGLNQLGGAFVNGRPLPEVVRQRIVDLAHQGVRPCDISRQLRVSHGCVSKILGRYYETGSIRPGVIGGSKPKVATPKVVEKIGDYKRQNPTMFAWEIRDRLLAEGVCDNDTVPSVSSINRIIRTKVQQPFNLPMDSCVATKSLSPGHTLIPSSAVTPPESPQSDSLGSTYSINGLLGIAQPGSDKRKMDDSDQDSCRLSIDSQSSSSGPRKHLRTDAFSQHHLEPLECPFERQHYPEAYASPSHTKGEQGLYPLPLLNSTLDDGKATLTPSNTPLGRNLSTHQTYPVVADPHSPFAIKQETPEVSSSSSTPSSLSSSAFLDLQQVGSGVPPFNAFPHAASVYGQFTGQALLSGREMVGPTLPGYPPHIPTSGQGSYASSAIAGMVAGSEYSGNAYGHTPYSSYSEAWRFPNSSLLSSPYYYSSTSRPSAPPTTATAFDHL
- testMethodNotes: PAX8 transcriptional activity inhibition in RMG-I – RMG-I cells, luciferase, cherry-pick, dose response (AID 687027);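 further: luciferase reporter driven by Pax8 target thyroperoxidase promoter measured by SteadyGlo luminescence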
- Assay type: functional, cell-based
Active and inactive are the calls of the source.
experimentalEndpoint: AC50

molecule	assayTarget	endpointResult
COC(=O)C1=C(C)N(Cc2cccc(C(F)(F)F)c2)C(NCC2CC2)=NC1c1cccc(C(F)(F)F)c1 (centres undefined)	Paired box protein Pax-8 (Homo sapiens)	17.2 µM (active)
COc1ccc(/C=C/c2nc3ccccc3n2C)cc1	Paired box protein Pax-8 (Homo sapiens)	6.69 µM (active)
COc1cccc(S(=O)(=O)N2C[C@@H]3N[C@H](C2)[C@@H]3c2ccc(/C=C/c3ccccc3)cc2)c1	Paired box protein Pax-8 (Homo sapiens)	9.43 µM (active)

Here is another molecule to look at.
The molecule identified as C=C1C(=O)O[C@@H]2[C@H]1[C@@H](OC(=O)/C(C)=C/C)C/C(C)=C\C(=O)/C=C(\C)[C@@H]2O registered its AC50 at 4.03 µM (active)

---

- assayTarget: Ubiquitin-conjugating enzyme E2 N (Homo sapiens);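 further: Dose-response confirmation in a TR-FRET assay detecting UBC13-driven polyubiquitin chain formation, inhibition measured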
- Sequence (P61088 whole entry): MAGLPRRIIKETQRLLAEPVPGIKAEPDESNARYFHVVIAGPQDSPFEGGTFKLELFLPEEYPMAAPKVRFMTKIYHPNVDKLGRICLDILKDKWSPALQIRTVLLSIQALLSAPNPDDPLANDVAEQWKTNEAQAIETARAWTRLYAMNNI
- Type: functional
Calls of active or inactive are those of the source.
experimentalEndpoint: IC50

Example molecules with recorded IC50:
molecule	endpointResult
CCN(CC)CCNC(=O)c1ccc(NC(=O)c2cc(-c3ccncc3)nc3ccccc23)cc1	17 µM (active)
Cc1ccc2nc(O)c(N=C(N)S)nc2c1	> 20 µM (inactive)
Cc1c(Br)c(C(=O)NNC(=O)c2ccc(C(C)(C)C)cc2)nn1C	> 20 µM (inactive)

The molecule CN(C)C(CNC(=O)c1coc2ccccc2c1=O)c1ccccc1 (centres undefined) , when measured on Ubiquitin-conjugating enzyme E2 N (Homo sapiens), yielded IC50 of > 20 µM (inactive)

---

- assayTarget: 1-phosphatidylinositol 4,5-bisphosphate phosphodiesterase beta-3 (Homo sapiens, UniProt Q01970)
- Sequence (Q01970 whole entry): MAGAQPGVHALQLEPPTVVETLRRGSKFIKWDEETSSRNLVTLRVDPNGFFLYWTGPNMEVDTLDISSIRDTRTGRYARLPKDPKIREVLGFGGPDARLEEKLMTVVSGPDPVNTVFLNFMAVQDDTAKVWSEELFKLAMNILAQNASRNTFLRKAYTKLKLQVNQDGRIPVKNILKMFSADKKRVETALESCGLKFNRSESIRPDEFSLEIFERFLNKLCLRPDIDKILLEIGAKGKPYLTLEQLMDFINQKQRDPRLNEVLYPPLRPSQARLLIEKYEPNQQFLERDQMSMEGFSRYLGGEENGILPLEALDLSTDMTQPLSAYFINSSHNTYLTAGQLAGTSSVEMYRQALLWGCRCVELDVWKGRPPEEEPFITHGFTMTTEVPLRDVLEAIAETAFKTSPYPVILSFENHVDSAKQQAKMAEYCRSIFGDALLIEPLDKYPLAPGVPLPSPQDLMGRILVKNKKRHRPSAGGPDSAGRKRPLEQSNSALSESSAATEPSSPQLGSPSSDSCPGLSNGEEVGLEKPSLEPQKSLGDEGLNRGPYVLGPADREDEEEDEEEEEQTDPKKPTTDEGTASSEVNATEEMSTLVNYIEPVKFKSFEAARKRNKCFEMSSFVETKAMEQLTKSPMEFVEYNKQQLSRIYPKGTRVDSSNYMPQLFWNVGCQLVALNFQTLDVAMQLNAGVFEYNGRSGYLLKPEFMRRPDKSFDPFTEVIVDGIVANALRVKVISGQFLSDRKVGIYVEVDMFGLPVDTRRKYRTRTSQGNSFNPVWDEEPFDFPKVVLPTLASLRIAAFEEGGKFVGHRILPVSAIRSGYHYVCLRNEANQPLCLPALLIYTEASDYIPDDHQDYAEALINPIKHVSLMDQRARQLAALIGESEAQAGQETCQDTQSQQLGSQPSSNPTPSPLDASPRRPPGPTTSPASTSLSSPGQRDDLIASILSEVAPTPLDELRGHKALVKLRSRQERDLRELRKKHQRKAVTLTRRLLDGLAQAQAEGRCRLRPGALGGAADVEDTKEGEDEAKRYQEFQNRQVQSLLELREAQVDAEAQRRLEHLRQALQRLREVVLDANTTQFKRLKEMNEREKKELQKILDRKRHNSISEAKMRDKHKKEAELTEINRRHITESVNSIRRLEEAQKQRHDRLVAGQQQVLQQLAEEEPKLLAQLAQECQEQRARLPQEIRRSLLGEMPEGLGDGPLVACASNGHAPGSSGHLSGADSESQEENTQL
- testMethodNotes: Fluorescence-based biochemical high throughput dose response assay to identify inhibitors of phospholipase C isozymes (PLC-B3).
Activity calls are given as the source filed them.
experimentalEndpoint: IC50

Below, 3 compounds whose answers are already recorded.
recordSmiles	experimentalEndpoint	endpointResult
COc1cc(Cl)cc(C(c2c(C(=O)O)[nH]c3ccccc23)c2c(C(=O)O)[nH]c3ccccc23)c1O	IC50	> 122 µM (inactive)
CSc1nc(N)c(C(=O)NC2CCCCC2)s1	IC50	> 123 µM (inactive)
CCc1cccc(NC(=O)CN(c2ccc(OC)cc2)S(=O)(=O)c2c(C)n[nH]c2C)c1	IC50	> 123 µM (inactive)

Note: attention shifts to another entry.
Summary for this compound, Cc1ccc(C23CC4CC(CC(C(=O)NCC(=O)O)(C4)C2)C3)cc1 : IC50 is > 122 µM (inactive)

---

- assayTarget: Peroxisome proliferator-activated receptor gamma/Nuclear receptor coactivator 1 (Homo sapiens)
- Sequence (P37231 whole entry): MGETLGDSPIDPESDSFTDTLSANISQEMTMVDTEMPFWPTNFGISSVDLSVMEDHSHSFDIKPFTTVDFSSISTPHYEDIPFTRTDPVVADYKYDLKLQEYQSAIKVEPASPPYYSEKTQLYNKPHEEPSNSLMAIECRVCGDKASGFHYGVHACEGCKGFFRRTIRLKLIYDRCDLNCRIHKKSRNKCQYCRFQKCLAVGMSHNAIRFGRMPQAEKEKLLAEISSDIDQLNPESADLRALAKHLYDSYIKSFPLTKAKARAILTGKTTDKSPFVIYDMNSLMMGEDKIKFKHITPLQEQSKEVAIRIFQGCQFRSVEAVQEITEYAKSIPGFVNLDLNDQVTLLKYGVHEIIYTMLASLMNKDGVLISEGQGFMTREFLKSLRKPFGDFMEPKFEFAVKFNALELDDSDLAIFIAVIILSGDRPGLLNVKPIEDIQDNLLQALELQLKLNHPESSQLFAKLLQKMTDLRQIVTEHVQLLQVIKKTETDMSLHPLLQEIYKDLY
- Sequence (Q15788 whole entry, further chain): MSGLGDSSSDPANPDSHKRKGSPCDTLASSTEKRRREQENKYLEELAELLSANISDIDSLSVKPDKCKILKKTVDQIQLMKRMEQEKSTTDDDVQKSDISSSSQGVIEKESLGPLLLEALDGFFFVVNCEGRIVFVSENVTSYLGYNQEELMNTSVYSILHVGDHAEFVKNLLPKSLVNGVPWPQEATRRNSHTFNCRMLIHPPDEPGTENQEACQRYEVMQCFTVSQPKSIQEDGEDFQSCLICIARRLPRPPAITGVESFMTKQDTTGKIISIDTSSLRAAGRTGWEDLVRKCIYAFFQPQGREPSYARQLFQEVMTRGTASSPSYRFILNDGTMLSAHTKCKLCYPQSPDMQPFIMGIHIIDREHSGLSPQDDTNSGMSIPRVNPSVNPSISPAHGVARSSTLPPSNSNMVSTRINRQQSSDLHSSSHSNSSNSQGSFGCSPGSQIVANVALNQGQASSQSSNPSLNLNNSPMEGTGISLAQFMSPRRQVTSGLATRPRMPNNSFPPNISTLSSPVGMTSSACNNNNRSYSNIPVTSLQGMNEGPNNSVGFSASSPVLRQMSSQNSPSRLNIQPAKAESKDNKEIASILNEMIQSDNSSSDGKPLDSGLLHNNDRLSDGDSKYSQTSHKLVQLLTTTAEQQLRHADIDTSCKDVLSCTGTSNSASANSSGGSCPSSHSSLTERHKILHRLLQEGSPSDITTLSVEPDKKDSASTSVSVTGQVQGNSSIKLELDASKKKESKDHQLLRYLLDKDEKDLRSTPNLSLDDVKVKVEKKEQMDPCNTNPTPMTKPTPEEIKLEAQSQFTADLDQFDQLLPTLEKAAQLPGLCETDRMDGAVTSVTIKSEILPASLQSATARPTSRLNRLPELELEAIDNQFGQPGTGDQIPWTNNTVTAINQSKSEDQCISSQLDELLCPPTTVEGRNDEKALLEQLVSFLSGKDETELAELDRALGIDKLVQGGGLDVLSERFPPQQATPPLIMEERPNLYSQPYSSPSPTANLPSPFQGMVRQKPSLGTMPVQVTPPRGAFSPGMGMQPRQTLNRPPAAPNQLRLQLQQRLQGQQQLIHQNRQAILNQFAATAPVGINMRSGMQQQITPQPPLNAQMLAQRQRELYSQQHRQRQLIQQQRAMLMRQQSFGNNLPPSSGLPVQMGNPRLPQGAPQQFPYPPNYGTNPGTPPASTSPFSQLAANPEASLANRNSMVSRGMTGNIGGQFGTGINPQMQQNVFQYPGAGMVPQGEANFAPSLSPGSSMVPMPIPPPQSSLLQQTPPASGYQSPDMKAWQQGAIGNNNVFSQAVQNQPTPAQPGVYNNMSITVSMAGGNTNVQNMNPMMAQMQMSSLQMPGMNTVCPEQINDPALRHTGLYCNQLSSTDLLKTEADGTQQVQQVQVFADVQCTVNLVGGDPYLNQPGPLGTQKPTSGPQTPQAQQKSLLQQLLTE
- testMethodNotes: TR-FRET dose response biochemical High Throughput Screening assay for agonists of the steroid receptor coactivator 1 (SRC-1) recruitment by the peroxisome proliferator-activated receptor gamma (PPAR gamma): non-selective agonists. [Related pubchem assays (depositor defined):AID1300, AID1808, AID504735, AID631]
- Format: protein assay
Calls of active or inactive are those of the source.
Thanks in advance; please answer with one of these: true (1) for active, false (0) for inactive

Known results for compounds:
recordSmiles	group
O=C(NN1C(=O)/C(=C/c2nc3ccccc3[nH]2)SC1=S)c1ccccc1Cl	false (0)
CC(C)CC(=O)NC(=S)Nc1cccc2nsnc12	true (1)
Nc1nc(-c2c[nH]c3ccccc23)cs1	false (0)

// outcome(item) with item = CC(C)Sc1ncnc2c1oc1ccccc12
false (0)

Hi team, can someone confirm the assay call for CN(C)c1ccc(/C=C/C=C2/C(=O)NC(=O)N(c3ccccc3)C2=O)cc1 ?
false (0)
